- Test system: spleen cells of C57BL/6 mouse and pancreatic cells of BALB/c mouse
- METHOD: Lymphocyte mixed culture reaction (mouse MLR), uptake of 3H-TdR
- Type: cell-based
- RUN PARAMETERS: Mus musculus, Lymphocyte, 50 h; sample concentration 10^-2 µg/ml; cultured for 42 hours, then 8 hours with 3H-TdR; read-out: Uptake of ^3H-TdR (% of control)
activity at 0.01 µg/mL values, listed per item

COMPOUND	activity at 0.01 µg/mL / %
CCCCCCCCCCCCCCCCCCCCCC[C@@H](O)C(=O)N[C@@H](CO[C@H]1O[C@H](CO)[C@H](O)[C@H](O)[C@H]1O)[C@H](O)[C@H](O)CCCCCCCCCCC [Compound 23]	143
CCCCCCCCCCCCCCCCCCCCCCCC[C@@H](O)C(=O)N[C@@H](CO[C@H]1O[C@H](CO)[C@H](O)[C@H](O)[C@H]1O)[C@H](O)[C@H](O)CCCCCCCCCCCCCCCC [Compound 27]	162
CCCCCCCCCCCCCCC[C@@H](O)[C@H](CO[C@H]1O[C@H](CO)[C@H](O)[C@H](O)[C@H]1O)NC(C)=O [Compound 8]	96
CCCCCCCCCCCCCCCCCCCCCC[C@@H](O)C(=O)N[C@@H](CO[C@H]1O[C@H](CO)[C@H](O)[C@H](O)[C@H]1O)[C@H](O)[C@H](O)CCCCCCC [Compound 24]	144
CCCCCCCCCCCCCC(=O)N[C@H](CO[C@H]1O[C@H](CO)[C@H](O)[C@H](O)[C@H]1O)[C@@H](O)CCCCCCCCCCCCC [Compound 11]	95
CCCCCCCCCCCCCCC[C@@H](O)[C@H](CO[C@H]1O[C@H](CO)[C@H](O)[C@H](O)[C@H]1O)NC(=O)CCCCCCCCC [Compound 6]	187
CCCCCCCCCCCCCCCCCCCCCC[C@@H](O)C(=O)N[C@@H](CO[C@H]1O[C@H](CO)[C@H](O)[C@H](O)[C@H]1O)[C@H](O)CCCCCCCCCCCCCCC [Compound 14]	139
CCCCCCCCCCCCCCC[C@@H](O)[C@H](CO[C@H]1O[C@H](CO)[C@H](O)[C@H](O)[C@H]1O)NC(=O)CCCCCCC [Compound 7]	207
CCCCCCCCCCCCCCCCCCCCCCCC[C@@H](O)C(=O)N[C@@H](CO[C@H]1O[C@H](CO)[C@H](O)[C@H](O)[C@H]1O)[C@H](O)[C@H](O)CCCCCCCCCCCCCC [Compound 25]	161
CCCCCCCCCCCCCCCCCCCCCCCCCC(=O)N[C@@H](CO[C@H]1O[C@H](CO)[C@H](O)[C@H](O)[C@H]1O)[C@H](O)[C@H](O)CCCCCCCCCCCCC [Compound 20]	192
CCCCCCCCCCCCCC(=O)N[C@H](CO[C@H]1O[C@H](CO)[C@H](O)[C@H](O)[C@H]1O)[C@H](O)CCCCCCCCCCCCC [Compound 13]	107
